assay: Hematology assays in cynomolgus monkeys (Example 46); type: in vivo; details: Day 17
Strand notation (5' to 3'): a small letter for the sugar, then the base; units joined by * are phosphorothioate-linked, units joined directly phosphodiester-linked; [ ] holds rarer units or linkages, { } end groups; capitals alone tell only the bases. e = 2'-O-(2-methoxyethyl) (MOE); [5mC] = 5-methylcytosine; d = 2'-deoxy (DNA)
Kindly apply the following: true if neutrophils is less than 80%, false in every other case.

Answered cases to consult:
>>> label_value("ISIS 416850: MOE gapmer, nucleobases 1275 to 1318 of SEQ ID NO: 1 (Table 8) (antisense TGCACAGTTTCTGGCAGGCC; MOE gapmer, wing and gap sizes not given here)")
"false"
>>> label_value("ISIS 445531: 5-8-5 or 6-8-6 MOE microwalk gapmer (Table 44) (antisense eG*eG*e[5mC]*eA*eT*dT*dG*dG*dT*dG*d[5mC]*dA*d[5mC]*eA*eG*eT*eT*eT)")
"false"
>>> label_value("ISIS 449709: 3-8-3, 4-8-4, 2-10-2, 3-10-3 or 4-10-4 MOE microwalk gapmer (Table 46) (antisense eG*e[5mC]*eA*e[5mC]*dA*dG*dT*dT*dT*d[5mC]*dT*dG*dG*d[5mC]*eA*eG*eG*e[5mC])")
"false"

Could you please tell me whether neutrophils recorded for ISIS 449711: 3-8-3, 4-8-4, 2-10-2, 3-10-3 or 4-10-4 MOE microwalk gapmer (Table 46) (antisense eA*e[5mC]*dA*dG*dT*dT*dT*d[5mC]*dT*dG*dG*d[5mC]*eA*eG) is less than 80%?
true
